Provenance of the data: ChEMBL document CHEMBL4765373

# methodNotes: Tmax in Sprague-Dawley rat at 10 mg/kg, po administered via gavage by LC-MS/MS analysis
# Assay type: ADME, organism-based
# particulars: in vivo
recordedEndpoint: Tmax (min)

compoundstructurestring=C#CCN(C)CCCCCOc1ccc2c(c1)OCCC2=O valuemeasured=18

====

# Species on record: Homo sapiens
# methodNotes: Inhibition of self-induced amyloid beta (1 to 42) (unknown origin) peptide aggregation at 25 uM measured after 48 hrs by thioflavin-T fluorescence assay relative to control
recordedEndpoint: inhibition (%)

compoundstructurestring=C#CCN(C)CCCCOc1ccc2c(c1)OCCC2=O recordedendpoint=inhibition valuemeasured=43.9
compoundstructurestring=COc1cc(/C=C/C(=O)CC(=O)/C=C/c2ccc(O)c(OC)c2)ccc1O recordedendpoint=inhibition valuemeasured=46.1
compoundstructurestring=C#CCN(C)CCCCCOc1ccc(C=O)c(OC)c1 recordedendpoint=inhibition valuemeasured=0.82
compoundstructurestring=C#CCN(C)CCCCCCOc1ccc(C=O)c(OC)c1 recordedendpoint=inhibition valuemeasured=0.99
compoundstructurestring=C#CCN(C)CCCCCOc1ccc2c(c1)CCC2=O recordedendpoint=inhibition valuemeasured=11.4
compoundstructurestring=C#CCN(C)CCCCCCOc1ccc(C(C)=O)cc1 recordedendpoint=inhibition valuemeasured=12.7
compoundstructurestring=C#CCN(C)CCCCCOc1ccc2c(c1)CCCC2=O recordedendpoint=inhibition valuemeasured=10.3
compoundstructurestring=C#CCN(C)CCCCCOc1cccc(OC)c1 recordedendpoint=inhibition valuemeasured=22.2
compoundstructurestring=C#CCN(C)CCCCCOc1ccc2c(c1)OCCC2=O recordedendpoint=inhibition valuemeasured=40.8
compoundstructurestring=C#CCN(C)CCCCCCOc1ccc2c(c1)CCC2=O recordedendpoint=inhibition valuemeasured=0.68
compoundstructurestring=C#CCN(C)CCCOc1ccc2c(c1)OCCC2=O recordedendpoint=inhibition valuemeasured=7.77
compoundstructurestring=C#CCN(C)CCCCOc1ccc(C(C)=O)cc1OC recordedendpoint=inhibition valuemeasured=21.8
compoundstructurestring=C#CCN(C)CCCCOc1ccc(C=O)c(OC)c1 recordedendpoint=inhibition valuemeasured=0.86

====

# methodNotes: in vitro
# particulars: PAMPA, pH 7.4
Form field: Papp at 16 h (one value per entry).
recordedEndpoint: Papp at 16 h

molecule=C#CCN(C)CCCCCOc1ccc2c(c1)OCCC2=O valuemeasured="10.2 ×10⁻⁶ cm/s"
molecule=C#CCN(C)CCCCCCOc1ccc(C=O)c(OC)c1 valuemeasured="11.2 ×10⁻⁶ cm/s"
molecule=C#CCN(C)CCCCOc1ccc(C(C)=O)cc1 valuemeasured="10.6 ×10⁻⁶ cm/s"
molecule=C#CCN(C)CCCCCOc1cccc(OC)c1 valuemeasured="10.5 ×10⁻⁶ cm/s"
molecule=C#CCN(C)CCCCOc1ccc(C=O)c(OC)c1 valuemeasured="13.1 ×10⁻⁶ cm/s"
molecule=C#CCN(C)CCCCCOc1ccc(C(C)=O)cc1OC valuemeasured="12.9 ×10⁻⁶ cm/s"
molecule=C#CCN(C)CCCCCCOc1ccc(C(C)=O)cc1 valuemeasured="8.69 ×10⁻⁶ cm/s"
molecule=C#CCN(C)CCCCCOc1ccc(C=O)c(OC)c1 valuemeasured="14 ×10⁻⁶ cm/s"
molecule=C#CCN(C)CCCCOc1ccc2c(c1)CCCC2=O valuemeasured="8.7 ×10⁻⁶ cm/s"
molecule=C#CCN(C)CCCCCOc1ccc2c(c1)CCC2=O valuemeasured="10.9 ×10⁻⁶ cm/s"
molecule=C#CCN(C)CCCCCCOc1ccc2c(c1)OCC2=O valuemeasured="8.3 ×10⁻⁶ cm/s"
molecule=C#CCN(C)CCCCCCOc1ccc2c(c1)OCCC2=O valuemeasured="8.54 ×10⁻⁶ cm/s"
molecule=C#CCN(C)CCCCCCCCOc1ccc2c(c1)OCCC2=O valuemeasured="8.91 ×10⁻⁶ cm/s"
molecule=C#CCN(C)CCCCOc1ccc(C(C)=O)cc1OC valuemeasured="12.5 ×10⁻⁶ cm/s"
molecule=C#CCN(C)CCCCOc1ccc2c(c1)CCC2=O valuemeasured="9.61 ×10⁻⁶ cm/s"
molecule=C#CCN(C)CCCCOc1ccc2c(c1)OCCC2=O valuemeasured="13.7 ×10⁻⁶ cm/s"
molecule=C#CCN(C)CCCCCCOc1ccc2c(c1)CCCC2=O valuemeasured="8.58 ×10⁻⁶ cm/s"
molecule="CN(C)CCCN1c2ccccc2Sc2ccc(Cl)cc21 [CHLORPROMAZINE]" valuemeasured="7.12 ×10⁻⁶ cm/s"
molecule=C#CCN(C)CCCCCOc1ccc2c(c1)CCCC2=O valuemeasured="10.6 ×10⁻⁶ cm/s"
molecule="C[C@]12CC[C@@H]3c4ccc(O)cc4CC[C@H]3[C@@H]1CC[C@@H]2O [ESTRADIOL]" valuemeasured="12.4 ×10⁻⁶ cm/s"
molecule=C#CCN(C)CCCOc1ccc2c(c1)OCCC2=O valuemeasured="9.21 ×10⁻⁶ cm/s"
molecule=C#CCN(C)CCCCCCOc1ccc2c(c1)CCC2=O valuemeasured="12.8 ×10⁻⁶ cm/s"
